Cited source for all entries: PubChem BioAssay AID540308

systemUnderTest: Melanocortin receptor 4 (Homo sapiens)
procedureText: activators of MC4R beta-arrestin recruitment – cell-based, luminescence, agonist arm of biased-ligand search, primary screen (AID 540308)
statedConditions: U2OS MC4R beta-arrestin complementation, at 8.9 µM, stronger effect = higher value, percent of melanotan II response, DMSO zero
Out of some 360,000 compounds screened, about 3,500 (0.97%) were called active. The full list was thinned out, with actives kept by preference.
experimentalEndpoint: activation (%)
Numbers only here, please. The scale is %.

Field: example entries. Status: answers known.
1. COc1ccc(Cl)cc1-c1cc(C(=O)Nc2cc(OC)c(OC)c(OC)c2)[nH]n1    3.58
2. COCCNc1ncnc2c1ncn2[C@H]1CN(CCN2CCOCC2)C[C@@H](CO)O1    -1.53
3. C=CCN(CC=C)S(=O)(=O)c1ccc(C(=O)Nc2nc3c(s2)CCc2ccccc2-3)cc1    1.77
4. Cc1cc(-c2nc(C)c(-c3nnc(SCC(=O)Nc4ccccc4)n3C)s2)no1    -2.39

Query block: Fill in activation for record "Nc1nc(CSc2nnnn2-c2ccccc2)nc(Nc2ccccc2)n1"
Result block: 3.67

###

systemUnderTest: Melanocortin receptor 4 (Homo sapiens) (UniProt P32245)
Sequence (P32245 whole entry, looked up): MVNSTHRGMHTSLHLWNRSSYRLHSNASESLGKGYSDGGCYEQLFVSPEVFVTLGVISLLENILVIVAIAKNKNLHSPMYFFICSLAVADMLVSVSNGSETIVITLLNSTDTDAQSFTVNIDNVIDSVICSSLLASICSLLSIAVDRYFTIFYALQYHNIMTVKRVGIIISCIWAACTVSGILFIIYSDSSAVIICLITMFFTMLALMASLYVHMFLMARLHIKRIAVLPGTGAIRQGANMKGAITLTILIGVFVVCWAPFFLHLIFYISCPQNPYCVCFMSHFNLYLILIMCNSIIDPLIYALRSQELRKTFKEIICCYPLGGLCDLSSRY
procedureText: activators of MC4R beta-arrestin recruitment – cell-based, luminescence, agonist arm of biased-ligand search, primary screen (AID 540308)
statedConditions: U2OS MC4R beta-arrestin complementation, at 8.9 µM, percent of melanotan II response, DMSO zero
Screen size: about 360,000 compounds; about 3,500 (0.97%) were called active.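 Rule for the calls: active = activation above a per-plate cutoff, the mean activation of sample wells on that plate plus 3 SD (cut at about 8% in these data); inactive = the rest.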 This excerpt belongs to a sample that is enriched for actives.
Form entry, call: pick from YES = active, NO = inactive

Recorded results for 6 molecules are shown here.
1) CC(=O)Nc1cnc(-c2ccc(O)cc2C)cn1    NO
2) Cc1ccc(S(=O)(=O)N/N=C\c2cc3c(cc2[N+](=O)[O-])OCO3)cc1    NO
3) CCS(=O)(=O)Nc1cccc(-c2cc(-c3ccccc3)c3cc(C)ccc3n2)c1    YES
4) O=C(NCc1cccnc1)c1cc(C2CCCN(C(=O)C3CCCCC3)C2)on1 (stereo unspecified)    NO
5) COc1ccc(S(=O)(=O)Nc2ccc3cn[nH]c3c2)cc1[N+](=O)[O-]    NO
6) CCOC(=O)c1c(-c2ccccc2)oc2cc(Br)c(O)c(C=O)c12    YES

Query block: Tell me the assay call for CC(C)NC(=O)C1(C)CCCCN1Cc1cccc(C(F)(F)F)c1 (stereo unspecified) please.
Result block: NO

Query block: How was "CS(=O)(=O)Nc1cccc(-c2cn3ccccc3n2)c1" classified in this test?
Result block: NO

Query block: Just curious, what result did "CCc1nc2c(OCc3cccc(OC)c3)cccn2c1N(C)C(=O)C(C)C" get here?
Result block: NO

Query block: Write down the call the test reported for this molecule. Item: "COc1ccc(-c2ccc(C(=O)NCCN3CCOCC3)c3occc23)c(C)c1"
Result block: NO

Query block: Tell me the recorded outcome of this test for "Cc1cc(C)cc(NS(=O)(=O)Cc2ccccc2)c1" .
Result block: NO

###

systemUnderTest: Melanocortin receptor 4 (Homo sapiens)
procedureText: activators of MC4R beta-arrestin recruitment – cell-based, luminescence, agonist arm of biased-ligand search, primary screen (AID 540308)
statedConditions: U2OS MC4R beta-arrestin complementation, at 8.9 µM, stronger effect = higher value, percent of melanotan II response, DMSO zero
About 3,500 (0.97%) of roughly 360,000 compounds were called active. The sample holds actives, similar compounds and a random draw of the others, so the mix is not that of the screen.
experimentalEndpoint: activation (%)
# value in %; strip the unit string

Field: example entries. Status: answers known.
1) COc1cccc(CNC(=O)c2cccnc2Sc2ccc(Cl)cc2)c1    0.85
2) CCCC(=O)N1CCC1(C)C(=O)NS(=O)(=O)c1ccc(Cl)cc1 (stereo unspecified)    -0.17
3) O=C(COC(=O)CCCN1C(=O)c2cccc3cccc(c23)C1=O)NC1CCS(=O)(=O)C1 (stereo unspecified)    0.21
4) CC(=O)Nc1cccc(-c2cc3nc(NCc4cccnc4)n(C)c(=O)c3s2)c1    0.57
5) CCOC(=O)N/N=C/c1cn(Cc2ccccc2Cl)c2ccccc12    -2.13

Query block: State, for Melanocortin receptor 4 (Homo sapiens), measured activation of the compound listed here: CSc1ccc(CN2CCC2(C)C(=O)Nc2ccc(C)c(O)c2)cc1 (stereo unspecified)
Result block: -0.16

###

Each item that follows carries a reported activation.
systemUnderTest: Melanocortin receptor 4 (Homo sapiens) (UniProt P32245)
procedureText: activators of MC4R beta-arrestin recruitment – cell-based, luminescence, agonist arm of biased-ligand search, primary screen (AID 540308)
statedConditions: U2OS MC4R beta-arrestin complementation, at 8.9 µM, stronger effect = higher value, percent of melanotan II response, DMSO zero
Out of some 360,000 compounds screened, about 3,500 (0.97%) were called active. This is one part of a sample in which actives are shown more often than they occur.
Express it in %; write the number only.

Solved entries:
1. Cc1ccc(SCC(=O)N2CCN(c3ccc(F)cc3)CC2)cc1    -0.3
2. O=C(c1cc2cc(F)ccc2[nH]1)N1CCN(c2ccc(F)cc2)CC1    9.41
3. O=C(N/N=C\c1cccnc1)c1cc(-c2ccccc2)nc2c(Cl)cccc12    -0.85
4. CC1(C(=O)NS(=O)(=O)c2ccc(C#N)cc2)CCN1C(=O)c1ccc(C2CCCCC2)cc1 (stereo unspecified)    -2.29
5. CCCCC(=O)N(C)c1c(CC)nc2c(OCc3ccc(Cl)cc3Cl)cccn12    0.75

Query block: Quick one: give measured activation for "Cn1c(Nc2ccc(F)cc2)nc2cc(-c3ccsc3)sc2c1=O"
Result block: 2.85

Query block: Give reported activation value for "COc1cc(NC(=O)c2cc(-c3ccc(F)cc3OC(C)C)n[nH]2)cc(OC)c1OC"
Result block: 3.09

Query block: Find the measured activation of "Cc1c(C(=O)N2CCN(c3ccc(F)cc3)CC2)oc2c1C(=O)CCC2" and report it.
Result block: -0.69

Query block: In one line, give reported activation of the entry Cc1ccc(-c2cnc(C(O)c3cc(Cl)cc(Cl)c3)[nH]2)cc1 (stereo unspecified) .
Result block: 9.5

Query block: Return reported activation. Input compound: OC(c1ccc(Cl)cc1)c1ncc(-c2ccc(Cl)cc2)[nH]1 (stereo unspecified)
Result block: 1.64

Query block: Tell me measured activation for Cc1cccc(-c2cnc(C(O)c3cc(C)cc(C)c3)[nH]2)c1 (stereo unspecified) please.
Result block: -1.6

###

Listing of entries alongside the reported activation.
systemUnderTest: Melanocortin receptor 4 (Homo sapiens) (UniProt P32245)
procedureText: activators of MC4R beta-arrestin recruitment – cell-based, luminescence, agonist arm of biased-ligand search, primary screen (AID 540308)
statedConditions: U2OS MC4R beta-arrestin complementation, at 8.9 µM, stronger effect = higher value, percent of melanotan II response, DMSO zero
Screen size: about 360,000 compounds; about 3,500 (0.97%) were called active. What follows is part of a selection rich in actives, with near analogues and random picks from the rest.
A number alone suffices; assume %.

Sample answers from the record:
1. N#Cc1cccc(NC(=O)c2cc(C3CCCCN3C(=O)CCc3ccccc3)on2)c1 (stereo unspecified)    -1.43
2. O=C(Nc1ccc(Cl)cc1)c1csc([C@@H]2O[C@H](CO)[C@H](O)[C@H](O)[C@H]2O)n1    -0.59
3. CC(=O)Nc1ccc(-c2ccnc3c2CC(C(=O)NC(C)C)O3)cc1 (stereo unspecified)    -1.59

Query block: Report value: activation, system: Melanocortin receptor 4 (Homo sapiens) (UniProt P32245), compound: "COC(=O)c1ccc(OCC(=O)NC(C)(C)C)cc1"
Result block: -0.44

Query block: For Melanocortin receptor 4 (Homo sapiens) (UniProt P32245), give the measured activation of the entry "COC(=O)c1sccc1NN1C(=O)c2ccccc2C1=O"
Result block: 1.29

Query block: Enter recorded activation with Melanocortin receptor 4 (Homo sapiens) (UniProt P32245) for COc1ccccc1CC1(C)C(=O)Nc2ccc(OC(F)(F)F)cc21 (stereo unspecified) here.
Result block: 4.13

###

systemUnderTest: Melanocortin receptor 4 (Homo sapiens)
procedureText: activators of MC4R beta-arrestin recruitment – cell-based, luminescence, agonist arm of biased-ligand search, primary screen (AID 540308)
statedConditions: U2OS MC4R beta-arrestin complementation, at 8.9 µM, percent of melanotan II response, DMSO zero
Among all 360,000 compounds or so, about 3,500 (0.97%) were called active.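 How the source made its calls: active means activation above a per-plate cutoff, the mean activation of sample wells on that plate plus 3 SD (cut at about 8% in these data); inactive means the rest.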 Only a selection was taken, and actives are over-represented in it overall.
Respond only with the outcome that fits, drawn from yes for active, no for inactive

Worked cases, answers included:
1. CC1(C(=O)Nc2cccc3cccnc23)CCN1C(=O)CCC1CCCC1 (stereo unspecified)    no
2. COc1ccc2oc(-c3cccc(NC(=O)CSc4ccc(Cl)cc4)c3)nc2c1    no
3. CCCNC(=O)c1cc(C2CCCCN2S(=O)(=O)c2cn(C)cn2)on1 (stereo unspecified)    no
4. CC(C)Cn1cc(-c2cncc3nccn23)cn1    no
5. O=C(Nc1ccc2oc(-c3ccccc3F)nc2c1)c1ccco1    no

Query block: # lookup: test call for CCCNC(=O)c1cc(C2CCCCN2C(=O)OC)on1 (stereo unspecified)
Result block: no
